# System: HOP-62
# Experiment Summary: NCI tumour cell line growth inhibition, 48 h
Active and inactive are the calls of the source. No stated cut-off is given here; in the data, active = GI50 up to about 1.1 µM and inactive = higher.
Readout: GI50

Entry CCOC(=O)C(C#N)C1=CC(=O)C(=O)c2ccc(O)cc21 (centres undefined) , system HOP-62: what GI50 was measured?
> 100 µM (inactive)

====

# System: PC-3
# Experiment Summary: NCI tumour cell line growth inhibition, 48 h
Active and inactive are the calls of the source. Rule as the data show it: active = GI50 up to about 1.1 µM and inactive = higher.
Readout: GI50

// known answers, use as guide
| Compound | GI50 |
| --- | --- |
| N#Cc1ccc(N2CCOCC2)cc1 | > 100 µM (inactive) |
| C=CCNC(=O)CN(CC(=O)OC)C1CCCCC1N(CC(=O)OC)CC(=O)OC (stereo not given) | > 100 µM (inactive) |
| COc1ccc(-c2oc3c(OC)c(OC)c(OC)c(OC)c3c(=O)c2OC)cc1OC | 26.6 µM (inactive) |
| Cn1c2ccccc2n2c3nc4ccccc4nc3c(C#N)c12 | > 96.8 µM (inactive) |
| CN1CC2=C(N=C(S)NC2c2ccc(Cl)cc2)/C(=C/c2ccc(Cl)cc2)C1 (stereo not given) | 9.4 µM (inactive) |

For CCNCCNC(=O)c1ccc(I)cc1 , what is its reported GI50?
> 100 µM (inactive)

For Cc1cccc(CNNC(=O)c2cc[n+]([BH2-]C#N)cc2)c1 , what is its reported GI50?
31.6 µM (inactive)

For Cc1nc2ccccc2c(=O)n1NC(=O)c1ccc(N)cc1 , what is its reported GI50?
> 100 µM (inactive)

For Cc1cccc(Cl)c1NC(=O)/C=C/c1ccccc1 , what is its reported GI50?
> 100 µM (inactive)

For COc1ccc2cc(NC(=O)Nn3cnnc3)ccc2c1 , what is its reported GI50?
> 100 µM (inactive)

For O=c1c(Cl)c(Cl)c(=O)c2sc3cc(Cl)ccc3[nH]c1=2 , what is its reported GI50?
32.6 µM (inactive)

For Cc1cccc(C)c1NC(=O)/C=C/c1ccccc1 , what is its reported GI50?
> 100 µM (inactive)

====

# Tested on: HCC 2998
# Experiment Summary: NCI tumour cell line growth inhibition, 48 h
Activity calls are given as the source filed them. Rule as the data show it: active = GI50 up to about 1.1 µM and inactive = higher.
Below is a list of entries, each paired with its recorded GI50 value.

// known answers, use as guide
| Compound | Endpoint Value |
| --- | --- |
| COC(OC)(c1ccccc1)C(I)I | 23.1 µM (inactive) |
| Cc1cc(NC(=O)NC(=O)c2ccccc2N)ccc1Oc1ncc(Br)cn1 | 0.0154 µM (active) |
| Cn1c(-c2c(C3=CC(=O)N(c4ccccc4)C3=O)c3ccccc3n2C)cc2ccccc21 | > 100 µM (inactive) |
| O=C(Cn1c2c(c3ccccc31)CCCC2)N1CCCC1 | > 100 µM (inactive) |

For Cc1cccc(C)c1NC(=O)/C=C/c1ccccc1 , what is its reported GI50?
> 100 µM (inactive)

For COc1ccc(/C=C2\CCC(CN3CCOCC3)C2=O)cc1 (stereo unspecified) , what is its reported GI50?
5.48 µM (inactive)

For C(=N\c1ccc(-c2nc3ccccc3s2)cc1)/c1ccc[nH]1 , what is its reported GI50?
16.5 µM (inactive)

For CN(NC(=O)c1cccs1)C1=NCCN1 , what is its reported GI50?
> 100 µM (inactive)

For O=C1C2=Nc3ccccc3C(O)N2c2ccccc21 (stereo unspecified) , what is its reported GI50?
27.2 µM (inactive)

For O=C(/C=C\c1ccccc1)Oc1ccc(/C=C2\CCC/C(=C\c3ccc(OC(=O)/C=C\c4ccccc4)cc3)C2=O)cc1 , what is its reported GI50?
> 100 µM (inactive)

For O=C(O)c1ccc([N+](=O)[O-])c2cc3cnccc3nc12 , what is its reported GI50?
22.3 µM (inactive)
